tested on: Plasmodium falciparum; experiment: Screen against P. falciparum Asexual Blood Stage (ABS), at 5uM; type: functional, Dd2; conditions: tested at 5 uM
Hit rate of the full screen: of about 65,000 compounds, about 2,100 (3.2%) showed an effect of 50% or more. The median lay at about -52%. Shown is part of a subset that was picked to be rich in strong results.
observed property: INHIBITION

>  <compound>
CCc1c(C)sc2ncnc(N3CC[C@@H](N4CCC(O)CC4)[C@H](O)C3)c12

>  <assay target>
Plasmodium falciparum

>  <observed property>
INHIBITION

>  <reported value>
75.5%

$$$$
>  <compound>
Cc1ncc(CNCCO)c2cc(C(=O)c3ccc(Br)cc3)oc12

>  <assay target>
Plasmodium falciparum

>  <observed property>
INHIBITION

>  <reported value>
89.3%

$$$$
>  <compound>
C1=C(c2c[nH]c3ncccc23)CCN(Cc2nnc(C3CC3)o2)C1

>  <assay target>
Plasmodium falciparum

>  <observed property>
INHIBITION

>  <reported value>
-48.5%

$$$$
>  <compound>
CCN(C)c1ncc2c(c1C(=O)O)CCN(C1CCOC1)C2 (centres undefined)

>  <assay target>
Plasmodium falciparum

>  <observed property>
INHIBITION

>  <reported value>
-4.54%

$$$$
